# tested_on: interaction between GST-MAGEA11 MHD and FAM-PCF11_4 peptide (MAGE-A11:PCF11) (Homo sapiens (Human), UniProt P43364)
# Sequence (P43364 218-429): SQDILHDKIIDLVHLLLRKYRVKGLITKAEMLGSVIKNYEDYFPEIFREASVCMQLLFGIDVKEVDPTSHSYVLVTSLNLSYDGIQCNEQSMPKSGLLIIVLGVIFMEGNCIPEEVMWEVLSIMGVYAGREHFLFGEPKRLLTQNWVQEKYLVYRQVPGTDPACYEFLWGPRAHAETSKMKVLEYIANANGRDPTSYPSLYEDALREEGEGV
# test_method_notes: TR-FRET dose response competition assay for disruption of MAGE-A11:PCF11 binding
# test_settings: Dose response TR-FRET screening of nine scaffold groups against MAGE-A11:PCF11; read-out: consensus IC50
assay_metric: pIC50
# pIC50 = -log10(concentration in molar units)

Cc1ccc(S(=O)(=O)c2nc(-c3ccccc3Cl)oc2N2CC(C)OC(C)C2)cc1 (centres unmarked) : 4.89

Measured pIC50, COc1ccc(CNCCCNc2ccnc3cc(Cl)ccc23)cc1 : 4.16

Please fill in: pIC50 reported for CC(C)(C)NC(=O)NC(=O)Cn1cnc2cc(-c3ccccc3)sc2c1=O = 4.16

Reported pIC50 for CCCn1c(=O)[nH]c(=O)c2c1nc(-c1cccc(OC)c1)n2CCOC was 4.16

Just so you know, measured pIC50 for CN(C)c1ccc(CNCCCNc2ccnc3cc(Cl)ccc23)c2ccccc12 came out at 4.16

Documented pIC50 of c1ccc(Oc2ccc3c(NCCCNCc4cccc5c4OCO5)ccnc3c2)cc1 : 4.52

pIC50 recorded for this compound, COc1ccc(Oc2ccc3c(NCCCNCc4cc(F)ccc4OC)ccnc3c2)cc1 , is 4.33
